TARGET ENTITY: Voltage-gated inwardly rectifying potassium channel KCNH2 (Homo sapiens) (UniProt Q12809)
Sequence (Q12809 whole entry, looked up): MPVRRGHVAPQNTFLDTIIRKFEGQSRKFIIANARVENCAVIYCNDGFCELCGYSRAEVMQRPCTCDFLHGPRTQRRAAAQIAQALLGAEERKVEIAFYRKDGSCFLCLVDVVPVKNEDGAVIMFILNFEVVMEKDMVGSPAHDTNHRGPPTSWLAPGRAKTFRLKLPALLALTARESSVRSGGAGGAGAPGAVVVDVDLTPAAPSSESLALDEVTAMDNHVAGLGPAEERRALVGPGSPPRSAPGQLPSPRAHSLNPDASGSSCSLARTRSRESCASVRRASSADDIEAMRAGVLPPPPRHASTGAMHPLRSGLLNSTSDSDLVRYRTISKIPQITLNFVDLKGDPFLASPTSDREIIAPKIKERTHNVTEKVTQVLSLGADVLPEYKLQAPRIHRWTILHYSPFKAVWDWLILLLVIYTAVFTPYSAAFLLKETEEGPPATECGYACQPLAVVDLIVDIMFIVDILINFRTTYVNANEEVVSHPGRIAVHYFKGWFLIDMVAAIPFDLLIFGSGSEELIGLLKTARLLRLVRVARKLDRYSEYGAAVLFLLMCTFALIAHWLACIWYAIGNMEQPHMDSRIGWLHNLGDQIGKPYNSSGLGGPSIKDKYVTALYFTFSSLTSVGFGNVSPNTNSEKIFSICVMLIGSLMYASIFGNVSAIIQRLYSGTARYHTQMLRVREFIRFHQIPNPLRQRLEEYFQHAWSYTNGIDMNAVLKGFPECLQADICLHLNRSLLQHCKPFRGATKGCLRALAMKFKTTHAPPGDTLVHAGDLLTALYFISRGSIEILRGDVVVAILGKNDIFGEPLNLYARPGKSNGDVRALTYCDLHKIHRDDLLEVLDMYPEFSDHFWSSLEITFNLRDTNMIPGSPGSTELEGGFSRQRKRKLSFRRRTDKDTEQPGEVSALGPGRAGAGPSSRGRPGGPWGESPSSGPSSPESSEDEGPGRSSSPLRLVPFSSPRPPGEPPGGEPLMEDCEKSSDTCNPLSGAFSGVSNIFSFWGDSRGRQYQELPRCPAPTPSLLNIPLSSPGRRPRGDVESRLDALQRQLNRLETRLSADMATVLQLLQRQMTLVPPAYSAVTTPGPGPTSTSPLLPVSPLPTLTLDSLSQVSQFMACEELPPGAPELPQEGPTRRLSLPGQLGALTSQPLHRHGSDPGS
MEASUREMENT DESCRIPTION: KCNH2 potassium channel function modulators, cell-based (AID 376);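 further: 0% = buffer alone and 100% = reference blocker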
MEASUREMENT CONDITIONS: hERG-expressing cells, channel activity single-concentration screen; concentration not given here
The campaign covered roughly 2,000 compounds. About 250 (12%) were called active. The list comes from a sample in which actives are over-represented; it also holds close analogues and randomly drawn compounds.
Listing of entries alongside the reported hERG blockade.

- COMPOUND: "O=C(O)Cc1cc(Cl)ccc1O"
  MEASUREMENT UNIT: "%"
  hERG blockade: -4.5
- COMPOUND: "CC1(C)SC2C(C(=O)O)N=C(Cc3ccccc3)N2C1C(=O)O (stereo unspecified)"
  MEASUREMENT UNIT: "%"
  hERG blockade: 4.53
- COMPOUND: "CNC1NC(=O)c2ccccc2N1Cc1ccc(F)cc1 (stereo unspecified)"
  MEASUREMENT UNIT: "%"
  hERG blockade: 9.53
- COMPOUND: "CC1(CCOCc2ccccc2)NC(=O)NC1=O (stereo unspecified)"
  MEASUREMENT UNIT: "%"
  hERG blockade: -3.15
- COMPOUND: "Fc1cccc(F)c1C(Nc1nncs1)Nc1nncs1"
  MEASUREMENT UNIT: "%"
  hERG blockade: -2.76
- COMPOUND: "c1ccc2sc(SCN(C3CCCCC3)C3CCCCC3)nc2c1"
  MEASUREMENT UNIT: "%"
  hERG blockade: 12.7

###

TARGET ENTITY: Voltage-gated inwardly rectifying potassium channel KCNH2 (Homo sapiens) (UniProt Q12809)
MEASUREMENT DESCRIPTION: KCNH2 potassium channel function modulators, cell-based (AID 376);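 further: 0% = buffer alone and 100% = reference blocker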
MEASUREMENT CONDITIONS: hERG-expressing cells, channel activity single-concentration screen; concentration not given here
In all, about 2,000 compounds went through this assay and about 250 (12%) were called active. No stated cut-off is given here; in the data, active means hERG blockade below about -20% or above about 20%; inactive means in between. The sample holds actives, similar compounds and a random draw of the others, so the mix is not that of the screen.
Outcomes: 1 (yes) (active), 0 (no) (inactive)

- COMPOUND: "Cn1c(=O)c2[nH]c(CCCCc3nc4c([nH]3)c(=O)n(C)c(=S)n4C)nc2n(C)c1=S"
  GROUP LABEL: "0 (no)"
- COMPOUND: "O=C(O)C=C(C(=O)O)C12CCN3CC4=CCOC5CC(=O)NC1C5C4CC32 (stereo unspecified)"
  GROUP LABEL: "1 (yes)"
- COMPOUND: "Cc1ccc(NC(=O)c2ccccc2C(=O)O)cc1C"
  GROUP LABEL: "0 (no)"
- COMPOUND: "Cc1ccc(CCCC(=O)O)cc1C"
  GROUP LABEL: "0 (no)"
- COMPOUND: "COc1c2c(c3c(c1CCC(=O)O)OC(C)(C)C=C3)OC(C)(C)C=C2"
  GROUP LABEL: "1 (yes)"
- COMPOUND: "O=C1CNCCCN2CCN(CCCNCC(=O)Nc3ccc(cc3)S(=O)(=O)c3ccc(cc3)NC(=O)CNCCCN3CCN(CCCNCC(=O)Nc4ccc(cc4)S(=O)(=O)c4ccc(cc4)N1)CC3)CC2"
  GROUP LABEL: "0 (no)"

###

Listing of entries alongside the reported hERG blockade.
TARGET ENTITY: Voltage-gated inwardly rectifying potassium channel KCNH2 (Homo sapiens) (UniProt Q12809)
MEASUREMENT DESCRIPTION: KCNH2 potassium channel function modulators, cell-based (AID 376);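 further: 0% = buffer alone and 100% = reference blocker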
MEASUREMENT CONDITIONS: hERG-expressing cells, channel activity single-concentration screen; concentration not given here
In all, about 2,000 compounds went through this assay and about 250 (12%) were called active. The sample holds actives, similar compounds and a random draw of the others, so the mix is not that of the screen.

- COMPOUND: "O=S(=O)(O)c1ccc2c(N=Nc3cccc4ccccc34)c(O)c(S(=O)(=O)O)cc2c1"
  TARGET ENTITY: "Voltage-gated inwardly rectifying potassium channel KCNH2 (Homo sapiens) (UniProt Q12809)"
  hERG blockade [%]: 8.62
- COMPOUND: "O=[N+]([O-])c1ccc2c(N=Nc3ccc4ccccc4c3O)c(O)cc(S(=O)(=O)O)c2c1"
  TARGET ENTITY: "Voltage-gated inwardly rectifying potassium channel KCNH2 (Homo sapiens) (UniProt Q12809)"
  hERG blockade [%]: 23.1
- COMPOUND: "S=C1SCN(C2CCCCCCCCCCC2)CN1C1CCCCCCCCCCC1"
  TARGET ENTITY: "Voltage-gated inwardly rectifying potassium channel KCNH2 (Homo sapiens) (UniProt Q12809)"
  hERG blockade [%]: 0.139
- COMPOUND: "CC(=NCC(=O)O)c1ccccc1"
  TARGET ENTITY: "Voltage-gated inwardly rectifying potassium channel KCNH2 (Homo sapiens) (UniProt Q12809)"
  hERG blockade [%]: -2.03
- COMPOUND: "C[N+](C)(C)CCCSc1nc2ccccc2[nH]1"
  TARGET ENTITY: "Voltage-gated inwardly rectifying potassium channel KCNH2 (Homo sapiens) (UniProt Q12809)"
  hERG blockade [%]: 6.28
- COMPOUND: "O=S(=O)(O)c1ccc(N=Nc2ccccc2)cc1"
  TARGET ENTITY: "Voltage-gated inwardly rectifying potassium channel KCNH2 (Homo sapiens) (UniProt Q12809)"
  hERG blockade [%]: -15.7
- COMPOUND: "Oc1c(Br)cc(Br)cc1CN(Cc1cc(Br)cc(Br)c1O)C1CCCCC1"
  TARGET ENTITY: "Voltage-gated inwardly rectifying potassium channel KCNH2 (Homo sapiens) (UniProt Q12809)"
  hERG blockade [%]: -7.44
- COMPOUND: "ON(CCc1ccccn1)Cc1ccccc1"
  TARGET ENTITY: "Voltage-gated inwardly rectifying potassium channel KCNH2 (Homo sapiens) (UniProt Q12809)"
  hERG blockade [%]: -7.89
- COMPOUND: "CCC(N)(C(=O)O)C(C)C (centres undefined)"
  TARGET ENTITY: "Voltage-gated inwardly rectifying potassium channel KCNH2 (Homo sapiens) (UniProt Q12809)"
  hERG blockade [%]: -13.5
- COMPOUND: "C[N+](C)(C)CC(=O)NN=Cc1c(O)ccc2ccccc12"
  TARGET ENTITY: "Voltage-gated inwardly rectifying potassium channel KCNH2 (Homo sapiens) (UniProt Q12809)"
  hERG blockade [%]: -4.06
- COMPOUND: "Cc1cccc2cc3ccc4ccccc4c3cc12"
  TARGET ENTITY: "Voltage-gated inwardly rectifying potassium channel KCNH2 (Homo sapiens) (UniProt Q12809)"
  hERG blockade [%]: 11.1
- COMPOUND: "C(=Nc1ccc2c(c1)Cc1ccccc1-2)c1ccccn1"
  TARGET ENTITY: "Voltage-gated inwardly rectifying potassium channel KCNH2 (Homo sapiens) (UniProt Q12809)"
  hERG blockade [%]: -16.5
- COMPOUND: "COc1ccc(C(=O)CCN(C)C)c2ccccc12"
  TARGET ENTITY: "Voltage-gated inwardly rectifying potassium channel KCNH2 (Homo sapiens) (UniProt Q12809)"
  hERG blockade [%]: 7.02
- COMPOUND: "OCCN(CCO)c1ncnc2nc[nH]c12"
  TARGET ENTITY: "Voltage-gated inwardly rectifying potassium channel KCNH2 (Homo sapiens) (UniProt Q12809)"
  hERG blockade [%]: 9.05

###

TARGET ENTITY: Voltage-gated inwardly rectifying potassium channel KCNH2 (Homo sapiens)
MEASUREMENT DESCRIPTION: KCNH2 potassium channel function modulators, cell-based (AID 376);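 further: 0% = buffer alone and 100% = reference blocker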
MEASUREMENT CONDITIONS: hERG-expressing cells, channel activity single-concentration screen; concentration not given here
Out of some 2,000 compounds screened, about 250 (12%) were called active. Cut-off read from the data, not from the text of the source: active = hERG blockade below about -20% or above about 20%; inactive = in between. For the sample, actives were picked, then their nearest neighbours and some compounds at random.
Outcomes: t (active), f (inactive)

- COMPOUND: "Cc1c(Cl)cc(C(C)(C)C)c(O)c1Cc1c(C)c(Cl)cc(C(C)(C)C)c1O"
  GROUP LABEL: "f"
- COMPOUND: "CN(C)CCn1c(CO)nc2c1c(=O)n(C)c(=O)n2C"
  GROUP LABEL: "f"
- COMPOUND: "COc1cc(C2SCCCCCCCCCCSC(c3ccc(O)c(OC)c3)SCCCCCCCCCCS2)ccc1O (stereo not given)"
  GROUP LABEL: "f"
- COMPOUND: "CN(C)CCNc1nc2c(c(=O)n(C)c(=O)n2C)n1C"
  GROUP LABEL: "t"
- COMPOUND: "O=C(O)Cc1c[nH]c2ccc(F)cc12"
  GROUP LABEL: "f"

###

TARGET ENTITY: Voltage-gated inwardly rectifying potassium channel KCNH2 (Homo sapiens) (UniProt Q12809)
MEASUREMENT DESCRIPTION: KCNH2 potassium channel function modulators, cell-based (AID 376);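 further: 0% = buffer alone and 100% = reference blocker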
MEASUREMENT CONDITIONS: hERG-expressing cells, channel activity single-concentration screen; concentration not given here
Hit rate of the full screen: of about 2,000 compounds, about 250 (12%) were called active. Many of the other results were omitted from the sample, so actives are more common in it than they were.

- COMPOUND: "Cc1ccnc(NS(=O)(=O)c2ccc(N=[N+]=[N-])cc2)n1"
  hERG blockade [%]: 8.12
- COMPOUND: "Nc1nc2c(ncn2C2C=CC(CO)C2)c(=O)[nH]1 (stereo unspecified)"
  hERG blockade [%]: 1.77
- COMPOUND: "CN(C)CCCN1c2ccccc2C(C)(C)c2ccccc21"
  hERG blockade [%]: 34.9
- COMPOUND: "CCC1=C(CC2NCCc3ccccc32)CC2c3cc(OC)c(OC)cc3CCN2C1 (stereo unspecified)"
  hERG blockade [%]: 47.5
- COMPOUND: "NC(=O)c1nnn(Cc2cc(Cl)c(C(=O)c3ccc(Cl)cc3)c(Cl)c2)c1N"
  hERG blockade [%]: 17.3
- COMPOUND: "Nc1cc(S(=O)(=O)O)cc2ccc(S(=O)(=O)O)cc12"
  hERG blockade [%]: -2.77
